Reference source: paper PMC4445981

System: [3H]-D-Asp uptake in HCT116 and LoVo cells (parental and resistant)
Assay: [3H]-D-Asp uptake assay, summary over cell lines
Assay type: cell-based, human
Settings: Homo sapiens, read-out: IC50 values, competitive inhibition of [3H]-D-Asp uptake
reported-endpoint: IC50

> print(dat)
                                   compound  reported.endpoint          val
1  N[C@@H](CCC(=O)O)C(=O)O [L-Glu, L-glutamate]               IC50  20 to 30 µM

###

Tested on: [3H]-D-Asp uptake (glutamate transporter activity) in HCT116-PAR cells
Experiment: [3H]-D-Asp uptake assay, HCT116-PAR
Assay type: cell-based, human
Conditions: HCT116-PAR; 100 nM [3H]-D-Asp, 6 min, 37 °C; read-out: IC50, [3H]-D-Asp uptake
pIC50: −log10 of the molar value.
reported-endpoint: pIC50

> print(dat)
                                   compound                                    target  value.relation.sign   val
1  N[C@H](C(=O)O)[C@H](OCc1ccccc1)C(=O)O (racemic)  [3H]-D-Asp uptake (glutamate transporter activity) in HCT116-PAR cells                    =  5.74
2  COc1ccc(C2C(C#N)=C(N)OC3=C2C(=O)CC(c2cccc4ccccc24)C3)cc1 (centres unmarked)  [3H]-D-Asp uptake (glutamate transporter activity) in HCT116-PAR cells                    <  4.00

###

System: [3H]-D-Asp uptake (glutamate transporter activity) in LoVo-Oxa cells
Assay: [3H]-D-Asp uptake assay, LoVo-Oxa
Assay type: cell-based, human
Conditions: LoVo-Oxa; 100 nM [3H]-D-Asp, 6 min, 37 °C; read-out: IC50, [3H]-D-Asp uptake
pIC50: −log10 of the molar value.
reported-endpoint: pIC50

> print(dat)
                                   compound                                    target  reported.endpoint     val
1  COc1ccc(C2C(C#N)=C(N)OC3=C2C(=O)CC(c2cccc4ccccc24)C3)cc1 (stereo not shown) [UCPH]  [3H]-D-Asp uptake (glutamate transporter activity) in LoVo-Oxa cells              pIC50  < 4.00

###

System: [3H]-D-Asp uptake (glutamate transporter activity) in LoVo-PAR cells
Experiment: [3H]-D-Asp uptake assay, LoVo-PAR
Assay type: cell-based, human
Settings: LoVo-PAR; 100 nM [3H]-D-Asp, 6 min, 37 °C; read-out: IC50, [3H]-D-Asp uptake
pIC50: −log10 of the molar value.
Readings of pIC50 for the listed compounds
reported-endpoint: pIC50

> print(dat)
                                   compound  value.relation.sign   val
1  N[C@H](C(=O)O)[C@H](OCc1ccccc1)C(=O)O (racemic)                    =  5.85
2  COc1ccc(C2C(C#N)=C(N)OC3=C2C(=O)CC(c2cccc4ccccc24)C3)cc1 (centres unmarked)                    <  4.00
